Target: HLA-B*58:01
Experiment: IEDB peptide-MHC binding, purified MHC/competitive/radioactivity; filed as Kd, often an IC50 or EC50 that approximates it; bounds were set here for any values at or beyond the usual limits of such assays
Settings: source organism: Dengue virus 3 Martinique/1243/1999
Readout name: pKd
Quick note: pKd means taking -log10 of the concentration in moles per liter.

For the sequence "IASSGMLWMA" , what pKd is on record?
5.99

---

Target: HLA-C*14:02
Experiment: IEDB peptide-MHC binding, purified MHC/direct/fluorescence; filed as Kd, often an IC50 or EC50 that approximates it; bounds were set here for any values at or beyond the usual limits of such assays
Conditions: source organism: Homo sapiens
Readout name: pKd
Quick note: pKd means taking -log10 of the concentration in moles per liter.

Requested read-out pKd, target or system HLA-C*14:02, entry "HMMAVTLFY"
6.29

---

Target: HLA-B*58:01
Test: IEDB peptide-MHC binding, purified MHC/direct/fluorescence; filed as Kd, often an IC50 or EC50 that approximates it; bounds were set here for any values at or beyond the usual limits of such assays
Conditions: source organism: Corynebacterium efficiens
Readout name: Kd

For the sequence "KLGDQFGRK" , what Kd is on record?
≥ 20 µM

---

Target: HLA-A*24:02
Test: IEDB peptide-MHC binding, purified MHC/direct/fluorescence; filed as Kd, often an IC50 or EC50 that approximates it; bounds were set here for any values at or beyond the usual limits of such assays
Details: source organism: Cryptosporidium parvum Iowa II
Readout name: Kd (nM)
Report the figure in nM without appending any unit label.

For the sequence "IFQKISFFW" , what Kd is on record?
17

---

Biological target: HLA-A*03:01
Experiment: IEDB peptide-MHC binding, purified MHC/competitive/fluorescence; filed as Kd, often an IC50 or EC50 that approximates it; bounds were set here for any values at or beyond the usual limits of such assays
Settings: source organism: Burkholderia vietnamiensis G4
pKd: −log10 of the molar value.
Readout name: pKd

For the sequence "PLFKRGWRL" , what pKd is on record?
≤ 4.70

---

Biological target: HLA-B*15:01
Test: IEDB peptide-MHC binding, purified MHC/direct/fluorescence; filed as Kd, often an IC50 or EC50 that approximates it; bounds were set here for any values at or beyond the usual limits of such assays
Settings: source organism: Rickettsia australis
Readout name: Kd

For the sequence "ATYGTAVNK" , what Kd is on record?
≥ 20 µM

---

Target: HLA-A*02:02
Assay: IEDB peptide-MHC binding, purified MHC/competitive/radioactivity; filed as Kd, often an IC50 or EC50 that approximates it; bounds were set here for any values at or beyond the usual limits of such assays
Settings: source organism: Mammarenavirus brazilense
Readout name: pKd
Quick note: pKd means taking -log10 of the concentration in moles per liter.

Requested read-out pKd, target or system HLA-A*02:02, entry "HSLPRCWLV"
6.18

---

Target: HLA-A*69:01
Experiment: IEDB peptide-MHC binding, purified MHC/competitive/fluorescence; filed as Kd, often an IC50 or EC50 that approximates it; bounds were set here for any values at or beyond the usual limits of such assays
Conditions: source organism: Orthohantavirus andesense
pKd: −log10 of the molar value.
Readout name: pKd

- Chain sequence: "AVEDFLAFF"
  pKd: "≤ 4.70"

With those in mind, consider the next sequence.
Requested read-out pKd, target or system HLA-A*69:01, entry "DAVEDFLAF"
≤ 4.70
